assay explanation: Agilent ZORBAX 300 SB-C18, 150 × 1 mm, 3.5 µm; A: water + 0.01% heptafluorobutyric acid; B: acetonitrile + 0.01% heptafluorobutyric acid; gradient (min/%B) 0/0 100/90
condition context: stereoisomer not certain
parameter: LC retention time (min)
Your answer is read as min, so omit the unit and give the number.

Below are worked cases with known answers.
- CCC1(CC)C(=O)NCC(C)C1=O (stereo not drawn): 9.1
- Nc1ccc2ncn(Cc3ccccc3)c(=O)c2c1: 9.74

For the compound C1CCNCC1 , give its reported LC retention time.
6.6

For the compound c1cn[nH]n1 , give its reported LC retention time.
2.1

For the compound Cc1cccc(C)c1NC(=S)Nc1ccccc1 , give its reported LC retention time.
13.1

For the compound CCC(NC)c1ccccc1OC (stereo not drawn) , give its reported LC retention time.
9.09

For the compound O=C(NCCc1ccc2oc3ccccc3c2c1)C1CCCCC1 , give its reported LC retention time.
16.3

For the compound NC(CC(=O)O)c1ccccc1 (stereo not drawn) , give its reported LC retention time.
5.59

For the compound Cc1cccc(-n2c(C)nc3ccccc3c2=O)c1 , give its reported LC retention time.
11.9

For the compound CC(=O)Oc1ccccc1C=Cc1nc2ccccc2c(=O)o1 , give its reported LC retention time.
14.8

For the compound O=c1c2n[nH]nc2cnn1-c1ccccc1 , give its reported LC retention time.
8.76

For the compound Cc1ccc(C(=O)C=Cc2ccco2)cc1 , give its reported LC retention time.
15.1

For the compound NC(=O)CCN1CCNCC1 , give its reported LC retention time.
6.16

For the compound c1cc(-c2nn[nH]n2)cc(-n2cccn2)c1 , give its reported LC retention time.
9.34

For the compound CC(C=Cc1ccccc1)=NNC(=O)C(C)Nc1ccc2ccccc2c1 (stereo not drawn) , give its reported LC retention time.
16.2

For the compound CC(=O)c1ccc(-n2cccc2)cc1 , give its reported LC retention time.
13.2

For the compound O=C(O)c1n[nH]c(=O)[nH]1 , give its reported LC retention time.
1.25

For the compound CC(C)OC(=O)C(C)Nc1n[nH]c(=O)[nH]c1=O (stereo not drawn) , give its reported LC retention time.
8.55

For the compound Cc1cccc(C)c1NC1=NCCCS1 , give its reported LC retention time.
9.58

----------
assay explanation: Agilent ZORBAX 300 SB-C18, 150 × 1 mm, 3.5 µm; A: water + 0.01% heptafluorobutyric acid; B: acetonitrile + 0.01% heptafluorobutyric acid; gradient (min/%B) 0/0 100/90
condition context: stereoisomer not certain
parameter: LC retention time (min)
Your answer is read as min, so omit the unit and give the number.

Below are worked cases with known answers.
* CCCCOc1cc(C(=O)NCCN(CC)CC)c2ccccc2n1 | 11.8
* Cc1ccc(Nc2ccccc2)cc1 | 16.5
* CNCC(O)c1cccc(O)c1 (configuration not stated) | 7.2
* Nc1cccc(C2OCCCO2)c1 | 7.87
* CC1=NCCC1 | 4.35

For the compound Cc1cc(C)nc(Nc2n[nH]c(C)n2)n1 , give its reported LC retention time.
8.05

For the compound CC(NCCc1ccc(O)cc1)C(O)c1ccc(O)cc1 (configuration not stated) , give its reported LC retention time.
8.48

----------
assay explanation: Agilent ZORBAX 300 SB-C18, 150 × 1 mm, 3.5 µm; A: water + 0.01% heptafluorobutyric acid; B: acetonitrile + 0.01% heptafluorobutyric acid; gradient (min/%B) 0/0 100/90
condition context: stereoisomer not certain
Hi, to clarify the labels: 1 (yes) covers LC retention time from 8 min upward, 0 (no) covers anything below 8 min.

Please review the following examples before continuing.
• Cc1c(N)cc(N)cc1NC(=O)c1ccccc1 = 1 (yes)
• Nc1cccnc1 = 0 (no)
• Nc1cccc(CCC(=O)O)c1 = 0 (no)
• COc1cccc2c1NCCC2 = 1 (yes)

Determine whether this compound has LC retention time no lower than 8 min: CC(=O)NC(C)c1ccc(O)cc1 (stereo not drawn)
0 (no)

Determine whether this compound has LC retention time no lower than 8 min: O=C1C(=Cc2ccoc2)CCCC1=Cc1ccoc1
1 (yes)

Determine whether this compound has LC retention time no lower than 8 min: NC(CO)(CO)CO
0 (no)

Determine whether this compound has LC retention time no lower than 8 min: Cc1cc(C)ncn1
0 (no)

----------
assay explanation: Agilent ZORBAX 300 SB-C18, 150 × 1 mm, 3.5 µm; A: water + 0.01% heptafluorobutyric acid; B: acetonitrile + 0.01% heptafluorobutyric acid; gradient (min/%B) 0/0 100/90
condition context: stereoisomer not certain
The threshold is 9 min. Values of LC retention time beneath it are tagged True; values meeting or exceeding it are tagged False.

Please review the following examples before continuing.
• COc1ccc(N=Nc2c(N)n[nH]c2N)cc1 = False
• Cc1nc2c(ccc3[nH]c(C)nc32)[nH]1 = True
• CCN(CC)c1cc(C)c2ccccc2n1 = False
• O=CN1CCCCC1 = True
• CN(C)c1ccc(CCN)cc1 = True

Could you please tell me whether LC retention time recorded for Cc1cc(C)c(NC(=O)c2ccncc2)c(C)c1 is less than 9 min?
False

Could you please tell me whether LC retention time recorded for NC(=O)Cc1ccc(O)cc1 is less than 9 min?
True

----------
assay explanation: Agilent ZORBAX 300 SB-C18, 150 × 1 mm, 3.5 µm; A: water + 0.01% heptafluorobutyric acid; B: acetonitrile + 0.01% heptafluorobutyric acid; gradient (min/%B) 0/0 100/90
condition context: stereoisomer not certain
Each item that follows carries a reported LC retention time.
Your answer is read as min, so omit the unit and give the number.

• NC(N)=NC(CC(=O)O)C(=O)O (stereo not drawn) = 2.11
• NCC(=O)CCC(=O)O = 3.25
• c1ccc2[nH]c(CCn3c4c(c5ccccc53)CCCC4)nc2c1 = 12

For the compound CC(=O)Oc1c[nH]c2ccccc12 , give its reported LC retention time.
11.6

For the compound Cc1ccc(C)c(NC(=O)C(=O)NCC(C)O)c1 (stereo not drawn) , give its reported LC retention time.
10.5

For the compound COc1ccc2c(=O)c(C)c(-c3ccccc3)oc2c1CN(C)C , give its reported LC retention time.
10.1

For the compound CC(C)C1CN(Cc2ccco2)CCN1 (stereo not drawn) , give its reported LC retention time.
7.94

----------
Each item that follows carries a reported log10 LC retention time.
assay explanation: Agilent ZORBAX 300 SB-C18, 150 × 1 mm, 3.5 µm; A: water + 0.01% heptafluorobutyric acid; B: acetonitrile + 0.01% heptafluorobutyric acid; gradient (min/%B) 0/0 100/90
condition context: stereoisomer not certain
The base-10 logarithm of LC retention time, taken with LC retention time in min, is what appears here.

Below are worked cases with known answers.
- O=C(O)c1cncc(C(=O)O)c1: 0.48
- COc1ccc(C=CC(C)=O)cc1: 1.08
- Cc1cc(C)[nH]n1: 0.84

For the compound Cc1ccccc1NCC(=O)Nc1c(C)cccc1C , give its reported log10 LC retention time.
1.14

For the compound c1ccc(CN2CCN(Cc3ccncc3)CC2)nc1 , give its reported log10 LC retention time.
0.86

For the compound O=C1CCCN1CP(=O)(O)CN1CCCC1=O , give its reported log10 LC retention time.
0.16

For the compound CN1C(=O)CC(N2CCN(C(=O)CN3CCCC3)CC2)C1=O (centres undefined) , give its reported log10 LC retention time.
0.85

For the compound CCCNC , give its reported log10 LC retention time.
0.77

----------
Each item that follows carries a reported LC retention time.
assay explanation: Agilent ZORBAX 300 SB-C18, 150 × 1 mm, 3.5 µm; A: water + 0.01% heptafluorobutyric acid; B: acetonitrile + 0.01% heptafluorobutyric acid; gradient (min/%B) 0/0 100/90
condition context: stereoisomer not certain
Your answer is read as min, so omit the unit and give the number.

• CN(C)CCCN1c2ccccc2Sc2ccccc21 = 11.3
• CC1=NN(c2ccc(C)cc2)C(=O)C1C=O (stereo not drawn) = 8.94
• O=C(C=Cc1ccccc1)c1cc2ccccc2o1 = 16.7

For the molecule Cc1ccc2[nH]c(=O)c(=O)[nH]c2c1C , give its reported LC retention time.
8.13

For the molecule O=C(CNc1cccc2ccccc12)NN=CC=Cc1ccccc1 , give its reported LC retention time.
15.5

For the molecule O=C1NC2CCCCC2NC1CC(=O)N1CCN(Cc2ccccc2)CC1 (stereo not drawn) , give its reported LC retention time.
7.88

----------
assay explanation: Agilent ZORBAX 300 SB-C18, 150 × 1 mm, 3.5 µm; A: water + 0.01% heptafluorobutyric acid; B: acetonitrile + 0.01% heptafluorobutyric acid; gradient (min/%B) 0/0 100/90
condition context: stereoisomer not certain
The threshold is 9 min. Values of LC retention time beneath it are tagged Condition met; values meeting or exceeding it are tagged Condition not met.

* CCCc1ccc(O)c(N)c1 | Condition met
* CN(C)c1ccc(C=NNC(=O)c2cccc(N)c2)cc1 | Condition not met
* CCNCCNCC | Condition met
* CC(=O)c1c(C(C)=O)c(C)n(CCc2c[nH]c3ccccc23)c1C | Condition not met
* CCC(C)C(NC(=O)C1CCCN1)C(=O)O (stereo not drawn) | Condition met

Could you please tell me whether LC retention time recorded for CN(C)c1ccc(C(O)c2ccc(N(C)C)cc2)cc1 is less than 9 min?
Condition not met

Could you please tell me whether LC retention time recorded for c1ccc(Cn2c3ccccc3n3c(Nc4ccccc4)nnc23)cc1 is less than 9 min?
Condition not met

Could you please tell me whether LC retention time recorded for CC(C)Cc1nc2ccccc2n1CC(C)C is less than 9 min?
Condition not met

Could you please tell me whether LC retention time recorded for Cc1ccccc1CN is less than 9 min?
Condition met

Could you please tell me whether LC retention time recorded for NCCCCCCCCCCN is less than 9 min?
Condition met

Could you please tell me whether LC retention time recorded for Nc1cc(N)[nH]c(=S)n1 is less than 9 min?
Condition met

Could you please tell me whether LC retention time recorded for Cc1cccc(C=NNC(=O)c2cc3ccccc3cc2O)c1 is less than 9 min?
Condition not met

Could you please tell me whether LC retention time recorded for CCC(=O)Nc1ccc(Oc2ccc(NC(=O)CC)c(NC(=O)CC)c2)cc1 is less than 9 min?
Condition not met
